Examples of compounds with documented melting point follow.

Example entries begin here.
                                   compound          value
0  C#CCN1C(=O)COc2cc(F)c(N(C(C)=O)C(=O)C3=C(C(=O)OC)CCCC3)cc21  153 to 154 °C
1  Cc1cc(=O)n(C(=O)Oc2c(C(=O)c3ccc(Cl)cc3Cl)c(C)nn2C)o1  180 to 182 °C
2   CNC(=O)c1c(-c2ccccc2)noc1CC(=O)c1ccccn1  146 to 149 °C
3          COc1nc(C)n2nc(SCc3ccccc3)nc2c1Cl  115 to 116 °C
4  CC(O)CNCc1cc2c(=O)c(C(=O)NCc3ccc(Cl)cc3)cn(C)c2o1 (stereo not given)  172 to 173 °C

In plain terms, `CCOC(=O)c1ccc(-c2ccc(F)cc2)cc1-c1ccc(OC)c(OC)c1` has a documented melting point of 127 °C

In plain terms, `O=C1NCc2cnc(Nc3ccc(N4CCC(CCCO)CC4)cc3)nc2N1C1CCCC1` has a documented melting point of > 230 °C

In plain terms, O=C(CN1CC(c2ccc(Cl)cc2)CC1=O)N1CCNCC1 (stereo not given) has a documented melting point of 148 to 150 °C

In plain terms, `Cc1ccnc(-n2sc3ccccc3c2=O)c1` has a documented melting point of 195 to 196 °C

In plain terms, `CNS(=O)(=O)c1cc(C(C)(C)C)cc(CNC(C)=O)c1O` has a documented melting point of 173 to 174 °C

* * *

readout.type: melting point

>>> print(df.to_string())
                                   compound          value
0  CCCNCC(O)COc1ccccc1CCCc1cccc2c1CC(=O)N2 (stereo not given)         122 °C
1  CCOC(=O)C1=C(COC2CCN(C)CC2)NC(C)=C(C(=O)OC)C1c1cccc(C(F)(F)F)c1Cl (stereo not given)  180 to 181 °C
2  Cn1ncnc1COc1nn2c(-c3ccoc3)nncc2c1-c1ccccc1F         148 °C
3            O=C1c2ccccc2C(=O)N1CCSc1ncccn1  149 to 150 °C
4                        CCCNC(=O)Nc1ccccc1  106 to 107 °C

In plain terms, `Clc1cc(NC23CC4CC(CC(C4)C2)C3)nc(N2CCCC2)n1` has a documented melting point of 186 to 190 °C

In plain terms, CC(C)CC(NC(=O)C(NC(=O)OCc1ccccc1)C(C(=O)O)C(C)(C)C)C(=O)NC(CCCCNC(=O)OC(C)(C)C)C(=O)O (stereo not given) has a documented melting point of 173 to 174 °C

In plain terms, `CCc1ccc(C(=O)Nc2ccc(F)c(F)c2)cc1N` has a documented melting point of 108 to 110 °C

In plain terms, `CCOC(=O)c1c(O)c2cccnc2n(Cc2ccccc2)c1=O` has a documented melting point of 143 °C

In plain terms, CCOC(=O)C(C)Oc1ccc(Oc2cnc3ccc(Cl)cc3c2)cc1 (stereo not given) has a documented melting point of 98 °C

In plain terms, `O=[N+]([O-])c1cnc(N2CCN3CCC2CC3)nc1` has a documented melting point of 135 to 139 °C

In plain terms, `CCOC(=O)N(CCNc1ccc2ncc(Br)n2n1)c1ccccc1` has a documented melting point of 160 to 161 °C

In plain terms, `CCOC(=O)c1c(CC)nn(C)c1NC(=O)Cc1ccc(OC)cc1` has a documented melting point of 112 to 113 °C

In plain terms, `Cc1cccc(C)c1NC(=O)/C=C1\SCC(=O)N1c1ccccc1` has a documented melting point of 228 °C

In plain terms, `O=c1[nH]ncc2c1c(O)nc1ccccc12` has a documented melting point of > 350 °C

In plain terms, OCC1OC(SCC=Cc2ccccc2)C(O)C(O)C1O (stereo not given) has a documented melting point of 145 to 146 °C

In plain terms, CC(C(=O)O)c1ccc(CC2CCCCC2=O)cc1 (stereo not given) has a documented melting point of 84 to 86 °C

In plain terms, `CC(C)(C)Sc1c(CC(C)(C)C(=O)O)n(Cc2ccc(Cl)cc2)c2ccc(OCc3cnc4ccccc4n3)cc12` has a documented melting point of 216 to 219 °C

In plain terms, CCC1N=C(c2ccccc2F)c2c(ccc(N=C=O)c2Cl)N(C)C1=O (stereo not given) has a documented melting point of 243 to 244 °C

In plain terms, `CS(=O)(=O)c1ccc(-n2nc(C(F)(F)F)cc2-c2ccc(-c3cscn3)c(F)c2)cc1F` has a documented melting point of 156 to 158 °C
